# Tested on: Wolbachia pipientis
# EXPERIMENTAL_DETAILS: Anti-Wolbachia Cell-Based Screen
# Assay type: functional
# Design: scale not given: in the data most compounds retested in dose-response had high values
# DETAILS: 5 µM
The whole screen tested about 48,000 compounds, of which about 13,000 (27%) showed an effect of 50% or more. Some of the results follow.

COMPOUND: Cc1cnc(CN(C)C2CCN(CCn3cc(C#N)cn3)C2)o1 (centres undefined)
TARGET_SYSTEM: Wolbachia pipientis
Percent Effect [%]: 2.575

COMPOUND: CC(=O)N1CCN(CC(=O)N2CCN(c3cccc(C)c3)CC2)CC1
TARGET_SYSTEM: Wolbachia pipientis
Percent Effect [%]: -12.32

COMPOUND: Cc1ccccc1S(=O)(=O)NC(=O)C1(c2cccc(Cl)c2)CC1
TARGET_SYSTEM: Wolbachia pipientis
Percent Effect [%]: 3.29

COMPOUND: Cn1cc(S(=O)(=O)NC(=O)C2(c3ccccc3)CCC2)cn1
TARGET_SYSTEM: Wolbachia pipientis
Percent Effect [%]: -6.386

COMPOUND: Cc1cccc(C2(C(=O)NS(=O)(=O)c3cnn(C)c3)CCCC2)c1
TARGET_SYSTEM: Wolbachia pipientis
Percent Effect [%]: -9.611

COMPOUND: c1cc(-c2cnc(C3CCNCC3)cn2)n[nH]1
TARGET_SYSTEM: Wolbachia pipientis
Percent Effect [%]: 125.1

COMPOUND: CC(C)C1CN(S(=O)(=O)Cc2cccc(C#N)c2)CCS1 (centres undefined)
TARGET_SYSTEM: Wolbachia pipientis
Percent Effect [%]: -6.809

COMPOUND: CC(C)NC(=O)O[C@H]1COCCN(c2nc3ccccc3s2)C1
TARGET_SYSTEM: Wolbachia pipientis
Percent Effect [%]: 11.5

COMPOUND: Cc1ccc(S(=O)(=O)NC(=O)C2(c3ccc(F)cc3)CCC2)c(C)c1
TARGET_SYSTEM: Wolbachia pipientis
Percent Effect [%]: 80.83

COMPOUND: Clc1cccc2c3c([nH]c12)CCN(Cc1cc2n(n1)CCCNC2)C3
TARGET_SYSTEM: Wolbachia pipientis
Percent Effect [%]: -3.179

COMPOUND: CC(C)c1cnc(CN(C)C2CCN(CCc3ccncc3)C2)o1 (centres undefined)
TARGET_SYSTEM: Wolbachia pipientis
Percent Effect [%]: -3.327

COMPOUND: O=C(O)C(F)(F)F.O=C([C@H]1CCCO1)N1CCN(CCn2cccn2)c2ncccc2C1
TARGET_SYSTEM: Wolbachia pipientis
Percent Effect [%]: 108.8

COMPOUND: CCN(Cc1ccncc1)Cc1c[nH]nc1-c1ccc(F)cc1
TARGET_SYSTEM: Wolbachia pipientis
Percent Effect [%]: -6.114

COMPOUND: O=C(C1CCOC1)N1CCN(CCn2cccn2)c2ncccc2C1.O=C(O)C(F)(F)F (centres undefined)
TARGET_SYSTEM: Wolbachia pipientis
Percent Effect [%]: 122

COMPOUND: O=C(NCCc1cccs1)N1CCCC1CCCO (centres undefined)
TARGET_SYSTEM: Wolbachia pipientis
Percent Effect [%]: -4.53

COMPOUND: CC(C)c1cc(N2CCC(C(C)N3CCCC3)CC2)n2nccc2n1 (centres undefined)
TARGET_SYSTEM: Wolbachia pipientis
Percent Effect [%]: -4.218

COMPOUND: O=C(CN1C=Nc2ccccc2S1(=O)=O)NC1CCCCC1
TARGET_SYSTEM: Wolbachia pipientis
Percent Effect [%]: -27.98

COMPOUND: CC(C)c1cnc(CN(C)C2CCN(CCn3cc(C#N)cn3)C2)o1 (centres undefined)
TARGET_SYSTEM: Wolbachia pipientis
Percent Effect [%]: 95.34

COMPOUND: CS(=O)(=O)NCCNC(=O)C1(c2ccc(F)cc2)CC1
TARGET_SYSTEM: Wolbachia pipientis
Percent Effect [%]: 10.89

COMPOUND: NC(=O)N1CCCC(C(=O)NCc2ccccc2OC(F)(F)F)C1 (centres undefined)
TARGET_SYSTEM: Wolbachia pipientis
Percent Effect [%]: 21.92

COMPOUND: CCc1cnc(CN(C)C2CCN(CCS(C)(=O)=O)C2)o1 (centres undefined)
TARGET_SYSTEM: Wolbachia pipientis
Percent Effect [%]: -2.122

COMPOUND: c1cc(-c2cncc(C3CCNCC3)n2)n[nH]1
TARGET_SYSTEM: Wolbachia pipientis
Percent Effect [%]: 120.5

COMPOUND: Cc1cc(=O)c2ccccc2n1CC1CCCN(C)C1 (centres undefined)
TARGET_SYSTEM: Wolbachia pipientis
Percent Effect [%]: -3.698

COMPOUND: CCN1CCC(CC(=O)NCC(O)c2ccc3ccccc3c2)CC1 (centres undefined)
TARGET_SYSTEM: Wolbachia pipientis
Percent Effect [%]: -0.749
